# tested-on: WT CBL-B (36-427) (Homo sapiens, UniProt Q13191)
# Construct: N-terminal biotinylated WT CBL-B (36-427) and C-CBL (46-435) were captured on a streptavidin (SA) coated sensor chip
# Sequence (Q13191 36-427): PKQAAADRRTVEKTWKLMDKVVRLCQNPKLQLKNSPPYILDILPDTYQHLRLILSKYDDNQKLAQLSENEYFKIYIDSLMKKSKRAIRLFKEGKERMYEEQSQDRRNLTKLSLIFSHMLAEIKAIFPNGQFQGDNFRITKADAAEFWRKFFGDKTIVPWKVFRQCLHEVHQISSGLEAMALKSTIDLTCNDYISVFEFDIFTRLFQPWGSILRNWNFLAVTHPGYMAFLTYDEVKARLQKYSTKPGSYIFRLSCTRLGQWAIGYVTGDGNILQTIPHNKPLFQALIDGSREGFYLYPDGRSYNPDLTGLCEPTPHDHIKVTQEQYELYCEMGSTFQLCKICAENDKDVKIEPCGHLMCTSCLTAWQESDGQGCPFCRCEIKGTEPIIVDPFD
# protocol-text: Surface Plasmon Resonance (SPR) assay, binding affinity and kinetics, CBL-B
# particulars: SPR at 10° C., biotinylated WT CBL-B (36-427) on streptavidin chip; geometric mean; read-out: CBL-B SPR Kd (nM) GMean
Give log10 of Kd for every item shown.
Field: value | Transform: log10 | Quantity: Kd | Unit: nM

Here are 5 compounds together with their reported answers.
| compound | log10 of Kd |
| --- | --- |
| C[C@@H](N[C@H]1CC[C@@H]1O)c1nc(C(F)(F)F)cc2c(-c3cccc([C@H](c4nncn4C)C4CCC4)c3)n[nH]c12 (single isomer, unassigned) | 0.18 |
| CC(c1nc(C(F)(F)F)cc2c(-c3cccc(C4(Cc5nncn5C)COC4)c3)n[nH]c12)N1CCC[C@H](C)C1 (single isomer, unassigned) [Example C20] | 0.08 |
| C[C@@H](NC1CCCC1)c1nc(C(F)(F)F)cc2c(-c3cccc([C@H](c4nncn4C)C4CCC4)c3)n[nH]c12 (single isomer, unassigned) | -0.05 |
| C[C@H](CO)c1nc(C(F)(F)F)cc2c(-c3cccc([C@H](c4nncn4C)C4CCC4)c3)n[nH]c12 (single isomer, unassigned) | 0.60 |
| Cn1cnnc1CC1(c2cccc(-c3n[nH]c4c(CN5C[C@H](F)[C@@H](F)C5)nc(C(F)(F)F)cc34)c2)COC1 | 1.03 |

# return log10 of Kd for each item in the list
1. CCNCc1nc(C(F)(F)F)cc2c(-c3cccc(C4(Cc5nncn5C)COC4)c3)n[nH]c12
2. Cn1cnnc1[C@@H](c1cccc(-c2n[nH]c3c(CN4CC[C@@H](F)C4)nc(C(F)(F)F)cc23)c1)C1CCC1

Marked response:
1: 1.04; 2: 0.94

----------
# tested-on: C-CBL (46-435) (Homo sapiens, UniProt P22681)
# Construct: N-terminal biotinylated WT CBL-B (36-427) and C-CBL (46-435) were captured on a streptavidin (SA) coated sensor chip
# Sequence (P22681 46-435): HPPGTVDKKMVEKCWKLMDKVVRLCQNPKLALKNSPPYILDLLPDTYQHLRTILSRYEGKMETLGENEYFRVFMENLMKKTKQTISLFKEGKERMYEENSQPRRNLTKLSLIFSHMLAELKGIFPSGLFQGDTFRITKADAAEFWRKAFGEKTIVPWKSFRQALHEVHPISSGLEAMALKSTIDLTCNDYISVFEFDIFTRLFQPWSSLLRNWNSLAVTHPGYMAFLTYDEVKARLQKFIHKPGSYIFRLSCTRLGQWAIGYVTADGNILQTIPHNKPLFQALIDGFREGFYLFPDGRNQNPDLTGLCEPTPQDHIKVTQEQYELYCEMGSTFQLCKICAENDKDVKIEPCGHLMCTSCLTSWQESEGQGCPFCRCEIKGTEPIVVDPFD
# protocol-text: Surface Plasmon Resonance (SPR) assay, binding affinity and kinetics, C-CBL
# particulars: SPR at 10° C., biotinylated C-CBL (46-435) on streptavidin chip; geometric mean; read-out: C-CBL SPR Kd (nM) GMean
The threshold is 100 nM. Values of Kd beneath it are tagged t; values meeting or exceeding it are tagged f.

Would you please look over these solved cases?
| compound | tested-on | group-label |
| --- | --- | --- |
| C[C@@H](CO)c1nc(C(F)(F)F)cc2c(-c3cccc([C@H](c4nncn4C)C4CCC4)c3)n[nH]c12 (single isomer, unassigned) | C-CBL (46-435) (Homo sapiens, UniProt P22681) | f |
| C[C@@H](N[C@H]1CCC(F)(F)C1)c1nc(C(F)(F)F)cc2c(-c3cccc([C@H](c4nncn4C)C4CCC4)c3)n[nH]c12 | C-CBL (46-435) (Homo sapiens, UniProt P22681) | t |
| Cn1cnnc1[C@@H](c1cccc(-c2n[nH]c3c(CNC4CCNC(=O)C4)nc(C(F)(F)F)cc23)c1)C1CCC1 (single isomer, unassigned) [Example C87] | C-CBL (46-435) (Homo sapiens, UniProt P22681) | f |

Exam item: Lab note: Kd threshold 100 nM. Does this compound come in strictly under it? CC1CN(Cc2nc(C(F)(F)F)cc3c(-c4cccc(C5(Cc6nncn6C)COC5)c4)n[nH]c23)CCC1(F)F (single isomer, unassigned) [Example C32]
Marked response: t

Recorded values, source patent US20260125375A1.
